experiment: NCI Yeast Anticancer Drug Screen. Data for the mec2-1 strain (AID 157); conditions: S. cerevisiae mec2-1 strain, at 50.0 µM
This is part of a sample that, as a whole, favours compounds with a hit. Of some 79,000 tested, about 15% had one in any assay. Active and inactive are the calls of the source. Cut-off read from the data, not from the text of the source: active = growth inhibition above about 70%; inactive = the rest. Where a SMILES comes first, the peptide text is derived from it. [ ]: non-standard residue; d: D form. The star is where a group is joined. ξ: configuration not given here. ξF = NC(Cc1ccccc1)C(=O)O; Cbz = O=C(OCc1ccccc1)*; Sar = CNCC(=O)O
Tick one outcome: active, inactive

[[record]]
compound = "Cc1[nH]c(=O)n2c(C)nnc2c1C(=O)Nc1cc(Cl)cc(Cl)c1"
class_assignment = "inactive"


# lookup: test call for O=C(/C=C/c1cccs1)c1ccc(Cl)s1
inactive

Recorded call for CC(=O)OC1=C(C)C2=C3OC(=O)C(C)=C3CC[C@@]2(C)[C@@H](Cl)[C@@H]1Cl ?
inactive

Just curious, what result did O=C(O)C1Cc2ccccc2OC1=O (stereo unspecified) get here?
inactive

Given C=C1C(=O)C23C(O)CC4C5(C)CCCC4(C(O)OC5)C2C(OC(C)=O)CC1C3O (stereo unspecified) , state the outcome it received in this test.
inactive

Query: recorded result category for CN(CC(=O)NC(Cc1ccccc1)C(=O)O)C(=O)OCc1ccccc1 (stereo unspecified) (Cbz-[Sar]-[ξF]-OH) in this test
inactive

Entry O=C(O)C(O)(C1CCCCC1)C1CCC2CCC3CCCC1C32 (stereo unspecified) : call = ?
inactive

Please indicate how the test categorized O=C(O)CCSC1=NCCN1 .
inactive

Can you look up the reported call for CCCCCCCC[N+](C)(C)C for me?
inactive
